Source: the RNAGym collection of RNA variant scans (doi:10.1021/acssynbio.7b00057)

B1: Pistol ribozyme (parent)
chain: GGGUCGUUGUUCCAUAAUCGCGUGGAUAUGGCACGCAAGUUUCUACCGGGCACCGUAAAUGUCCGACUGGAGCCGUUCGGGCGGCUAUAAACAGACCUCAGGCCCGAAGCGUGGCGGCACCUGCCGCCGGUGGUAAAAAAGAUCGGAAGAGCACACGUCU

Variants of: B1
protocolNotes: aptazyme ON/OFF ratio, guanine; higher = stronger switching; co-transcriptional cleavage with and without guanine
measuredParameter: aptazyme ON/OFF ratio

U8A G9C U10C U11C C12G = 1.01
U7C G9A U11G C12U C13U = 1.45
U8C G9A U11G C12U = 1.29
U7A U8G G9U U10A U11A C12U C13U = 1.2
U7A U8G G9U U10A U11C C12G C13U = 1.4
C12U C13U = 1.26
U8C G9A U11G C13U = 1.15
U7C U8G U10C U11G C12A C13G = 1.1
U7G U11G C13U = 1.1
U7G G9U U11A C12A C13G = 1.23
U7C U8C G9U U10G U11A C12A C13G = 1.08
